Assay remarks: qHTS Assay for Identification of Small Molecule Agonists for Hypoxia Response Element Signaling Pathway (AID 914); also: % of control where 0% means no effect
Stated conditions: ME-180 (cervical carcinoma) HRE-bla reporter, beta-lactamase ratio, CoCl2, 17 h; stronger effect = higher value
Inconclusive results are not listed.
// reported activation per item

Smiles entry	activation, %
CCNc1ncc2ncc(=O)n(Cc3cccs3)c2n1	-28.8
COCC(=O)N1CCC[C@@]2(CCN(Cc3ccccc3OC)C2)C1	-5.2
Clc1ccccc1-c1nc(N2CCNCC2)c2ccccc2n1	16.5
COc1ccc(Oc2ncc3nc(C)c(=O)n(C[C@H]4CCCO4)c3n2)cc1	-5.29
CN1CCN(c2ncncc2-c2ccccc2C(F)(F)F)CC1	5.49
CC(C)NC(=O)N1CC[C@@]2(CCCN(C(=O)c3cc(C(F)(F)F)cc(C(F)(F)F)c3)C2)C1	-1.12
CN(C)C(=O)c1ccc(-c2ccc3ncnc(N4CCC(C(=O)O)CC4)c3c2)cc1	-0.026
CC(C)NC(=O)N1CCC2(CC1)CCN(C(=O)c1cc(C(F)(F)F)cc(C(F)(F)F)c1)CC2	9.62
COc1ccc(NC(=O)N2CC3(CCN(C(C)=O)CC3)C2)cc1	-8.17
FC(F)(F)c1ccccc1-c1nc(N2CCOCC2)c2ccccc2n1	9.18

====

Assay remarks: Cytotoxicity qHTS for assessment of Hepg2 cells membrane integrity screened against the NCATS CANVASS Library (AID 1347387)
Stated conditions: HepG2 LDH release (CytoTox-ONE) fluorescence, 5 h; series mostly up to 46.1 µM
Inconclusive results are not listed. Activity calls are given as the source filed them. Calls come from the whole dose curve; as a rule, active = well fitted curve in the direction sought with a large enough effect; inconclusive = small, poorly fitted or top-dose-only effect, or effect the other way, or another doubt; inactive = no such curve, though single readings can be large or run the other way.

Compound	cytotoxicity (LDH release)
C/C=C(/CO)C(=O)O[C@@H]1[C@H](O)[C@@H](C(=O)OC)O[C@@H]2C[C@H]3OC(n4cnc5c(N)ncnc54)[C@H](OC)[C@H]3O[C@@]12O (stereo partly drawn)	inactive
C[C@H](c1cnc(N)[nH]1)c1ccc(O)c2[nH]cc(-c3cnc(-c4c[nH]c5ccccc45)c(=O)[nH]3)c12	inactive
COc1cc(O)c(C(=O)[C@@H]2[C@H](CC=C(C)C)C(C)=CC[C@H]2c2ccccc2)c(O)c1	inactive
C[C@]12CCC[C@](C)(C(=O)O)[C@@H]1CC[C@@]1(C)c3cocc3CC[C@H]21	inactive
COc1ccc([C@@H]2c3cc4c(cc3C(=O)C(C)C2C)OCO4)cc1OC (stereo partly drawn)	inactive
O=C1CC2OCC=C3CN4C5CC3C2[C@@H]2N1c1ccccc1[C@]52C[C@@H]4C1=C[C@H]2C3CC4N(CC[C@@]45c4ccccc4N(C1=O)[C@@H]25)C/C3=C/CO (stereo partly drawn)	inactive
O=C1c2c(O)cc(O)cc2OC(c2ccc(O)cc2)C1O (stereo not drawn)	inactive
C/C=C/C1C=CC2CC(C)CC(C)C2C1C(=O)CC(=O)NC(CO)C/C=C/CCCCC (stereo not drawn)	inactive

====

Tested target: Calcium and integrin-binding protein 1 (Homo sapiens)
Assay remarks: Primary qHTS for Identification of Calcium Integrin Binding Protein 1 (CIB1) Competitor (AID 1508620);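 also: GST tagged CIB1 binding a fluorescein labelled alphaIIb integrin peptide tracer; top concentration of the series differs between compounds; % is scaled to controls: 0 for no effect and ±100 for the full control effect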
Stated conditions: CIB1-GST / FITC-alphaIIb peptide fluorescence polarization; series mostly up to 114 µM
Source text: Assay Provider: Ulhas P. Naik, PhD Sidney Kimmel Medical College Thomas Jefferson University, Philadelphia, PA Primary function of platelets is to maintain hemostasis. At the site of vascular injury, platelets adhere to adhesive proteins such as collagen and von Willebrand factor. […] PROTOCOL TABLES SEQUENCE No. (1, 2, 3, etc.); […] […] 7; ViewLux Fluorescent Polization Read: excitation = 480(20) / emission = 540(25) S and P; FITC Dichroic mirror.
Records with an inconclusive call do not appear. Active and inactive are the calls of the source. Calls follow the shape of the dose curve; as a rule, active = well fitted inhibition curve with a large enough effect; inconclusive = small, poorly fitted or top-dose-only effect; inactive = flat fitted curve, though single readings scatter.

Compound	outcome
Cc1cc(C)nc(NC(=S)N2CCN(c3cc(Cl)c(Cl)c(Cl)c3)CC2)c1	inactive
CC(C)(C)OC(=O)N1CCN(c2ccc(NCc3ncc(-c4ccc(C#N)cc4)s3)cc2)CC1	inactive
CC(=O)Nc1sc2c(c1-c1ccc(C#N)cc1)CCNC2	inactive
Cc1cccc2oc(NC3=NC(c4[nH]ncc4Cl)C4=C(CCCC4=O)N3)nc12 (stereo not given)	inactive
O=C(CCc1ccccc1)Nc1ncnc2c1C(c1ccccc1)c1c(ccc3ccccc13)O2 (stereo not given)	inactive
CCOC(=O)C1CCN(C(=O)C(C)(C)NC(=O)Nc2ccc3ccccc3c2)CC1	inactive
NC(=O)C1CCN(c2cc(-c3ccc4c(c3)OCCCO4)ncn2)CC1	inactive
Cc1cc(C)n2ncc(C(=O)Nc3ccc4c(c3)OCO4)c2n1	inactive
O=C(Nc1cccc(C(F)(F)F)c1)c1cccs1	inactive
COc1ccc(C2=Nn3c(nnc3-c3ccccc3OC)SC2)c(OC)c1	inactive
